# System: Salmonella typhimurium
# protocolSummary: Ratio of MIC for wild type Salmonella typhimurium SH5014 to MIC for Salmonella typhimurium SH7616 harboring missense mutation in acrA/acrB gene by two-fold serial dilution method
# Assay type: functional, Salmonella enterica subsp. enterica serovar Typhimurium
Task for the reader: assign each of the following molecules its reported Ratio.
Answers are plain numbers.

Previously resolved entries follow.
CC1(C)S[C@@H]2[C@H](NC(=O)CCC[C@@H](N)C(=O)O)C(=O)N2[C@H]1C(=O)O	1
Cc1nnc(SCC2=C(C(=O)O)N3C(=O)[C@@H](NC(=O)Cn4cnnn4)[C@H]3SC2)s1	1
CC1(C)S[C@@H]2[C@H](NC(=O)C(C(=O)O)c3ccccc3)C(=O)N2[C@H]1C(=O)O (stereo not given in full)	4

I'm hoping you can list Ratio for every molecule here, please.
1. NC(=O)c1cc[n+](CC2=C(C(=O)[O-])N3C(=O)[C@@H](NC(=O)[C@@H](c4ccccc4)S(=O)(=O)O)[C@H]3SC2)cc1
2. CO[C@@]1(NC(=O)CSCC#N)C(=O)N2C(C(=O)O)=C(CSc3nnnn3C)CS[C@@H]21
3. CC(=O)OCC1=C(C(=O)O)N2C(=O)[C@@H](NC(=O)CCC[C@@H](N)C(=O)O)[C@H]2SC1

# output
1. 1
2. 1
3. 1

====

Task for the reader: assign each of the following compounds its reported Ratio.
# System: Salmonella typhimurium
# protocolSummary: Ratio of MIC for wild type Salmonella typhimurium SH5014 to MIC for Salmonella typhimurium SH7616 harboring missense mutation in acrA/acrB gene by two-fold serial dilution method
# Type: functional, Salmonella enterica subsp. enterica serovar Typhimurium
Give bare numbers.

CC1(C)S[C@@H]2[C@H](NC(=O)Cc3ccccc3)C(=O)N2[C@H]1C(=O)O [PENICILLIN G]	32
CO/N=C(\C(=O)N[C@@H]1C(=O)N2C(C(=O)O)=C(COC(C)=O)CS[C@H]12)c1csc(N)n1 [CEFOTAXIME]	4
CO[C@@]1(NC(=O)C(C(=O)[O-])c2ccc(O)cc2)C(=O)N2C(C(=O)[O-])=C(CSc3nnnn3C)CO[C@@H]21.[Na+].[Na+] (some centres undefined) [MOXALACTAM DISODIUM]	1
CO[C@@]1(NC(=O)Cc2cccs2)C(=O)N2C(C(=O)O)=C(COC(N)=O)CS[C@@H]21 [CEFOXITIN]	4
CO/N=C(\C(=O)N[C@@H]1C(=O)N2C(C(=O)[O-])=C(C[N+]3(C)CCCC3)CS[C@H]12)c1csc(N)n1	1
Cc1onc(-c2ccccc2Cl)c1C(=O)N[C@@H]1C(=O)N2[C@@H]1SC(C)(C)[C@@H]2C(=O)O [CLOXACILLIN]	256

I'm hoping you can list Ratio for every compound here, please.
1. CO/N=C(\C(=O)N[C@@H]1C(=O)N2C(C(=O)O)=C(CSc3nc(=O)c(O)nn3C)CS[C@H]12)c1csc(N)n1 [CEFTRIAXONE]
2. O=C(Cc1cccs1)N[C@@H]1C(=O)N2C(C(=O)[O-])=C(C[n+]3ccccc3)CS[C@H]12 [CEPHALORIDINE]
3. CC1(C)S[C@@H]2[C@H](NC(=O)C(c3ccccc3)S(=O)(=O)O)C(=O)N2[C@H]1C(=O)O (some centres undefined) [SULBENICILLIN]

# output
2
2
4
